Assign melting point to each entry below.

# batch size: 4; output melting point per entry
1. C#CC(C)OC(=O)c1cccc(-c2ccc(CCC)cc2)n1 (stereo not drawn)
2. COc1ccc(-c2cc(OC)cc(C(=O)OC(C)C)n2)cc1
3. CCOC(=O)c1cccc(-c2ccccc2)n1
4. COc1ccc(C#Cc2ccc(-c3cccc(C(=O)OC(C)C)n3)cc2)cc1

## Result
["90 to 92 °C", "59 to 61 °C", "42 to 46 °C", "152 to 155 °C"]

# batch size: 4; output melting point per entry
1. C#CCOC(=O)c1cccc(-c2ccc(OCC)cc2)n1
2. CCOc1ccc(-c2cccc(C(=O)OCc3ccoc3)n2)cc1
3. CC(C)OC(=O)c1cccc(-c2ccc(CO)cc2)n1
4. CC(C)OC(=O)c1cccc(-c2ccc(CCc3ccccc3)cc2)n1

## Result
1. 76 to 78 °C
2. 97 to 101 °C
3. 129 to 131 °C
4. 88 to 89 °C

# batch size: 5; output melting point per entry
1. CCS(=O)(=O)c1ccc(-c2cccc(C(=O)OC(C)C)n2)cc1
2. CC(C)OC(=O)c1cccc(-c2ccc(OCC(F)(F)F)cc2)n1
3. CCOC(=O)c1ccc(-c2ccc(OCC)cc2)nc1
4. CCCCCCc1ccc(-c2cccc(C(=O)OC(C)C)n2)cc1
5. CCOC(=O)c1cc(C)cc(-c2ccc(OCC)cc2)n1

## Result
1. 126 to 129 °C
2. 70 to 75 °C
3. 106 to 108 °C
4. 34 to 35 °C
5. 90 to 91 °C
